Target: UniProt:P19099
Sequence (P19099 whole entry): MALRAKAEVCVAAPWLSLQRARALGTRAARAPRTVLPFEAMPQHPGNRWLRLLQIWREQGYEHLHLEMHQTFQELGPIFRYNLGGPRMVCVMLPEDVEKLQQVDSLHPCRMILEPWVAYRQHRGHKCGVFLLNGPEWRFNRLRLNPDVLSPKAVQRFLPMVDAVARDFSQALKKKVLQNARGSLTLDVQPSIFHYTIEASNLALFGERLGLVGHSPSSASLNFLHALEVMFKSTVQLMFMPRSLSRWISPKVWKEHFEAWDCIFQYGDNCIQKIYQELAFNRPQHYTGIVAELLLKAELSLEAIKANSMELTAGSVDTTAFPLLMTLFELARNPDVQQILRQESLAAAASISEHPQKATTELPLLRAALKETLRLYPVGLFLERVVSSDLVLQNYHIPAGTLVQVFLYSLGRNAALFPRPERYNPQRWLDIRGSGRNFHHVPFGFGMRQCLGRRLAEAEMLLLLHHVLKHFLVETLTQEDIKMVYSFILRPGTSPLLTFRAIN
Experiment: Inhibition Assay
From the text: The expression plasmids contains the ORF for either human/cyno CYP11B1 or CYP11B2 under the control of a suitable promoter (CMV-promoter) and a suitable resistance marker (neomycin). […] An aliquot of the supernatant is then transferred and analyzed for the concentration of the expected product (Aldosterone for CYP11B2; Cortisol for CYP11B1). The concentrations of these steroids can be determined using HTRF assays from CisBio analyzing either Aldosterone or Cortisol.
The following compounds are shown together with reported pEC50 values.
pEC50 here: minus log base 10 of the concentration, concentration in moles per litre.

Illustrative cases are given below, each with its answer.
INSERT INTO measurements (compound, target_under_test, metric, assay_value) VALUES
  ('CC(=O)N1CCC(C(C)c2c[nH]nc2-c2ccc3c(c2F)CCC(=O)N3C)CC1 (centres undefined)', 'UniProt:P19099', 'pEC50', 11.52),
  ('CC(=O)N1CCC(C(C)c2c[nH]nc2-c2cc3c(cc2F)N(C)C(=O)CC3)CC1 (racemic)', 'UniProt:P19099', 'pEC50', 11.30),
  ('CN1C(=O)CCc2cc(-c3n[nH]cc3CC3CCN(C(=O)c4cnn(C)c4)CC3)ccc21', 'UniProt:P19099', 'pEC50', 11.15);

For the compound `CCS(=O)(=O)N1CCC(Cc2c[nH]nc2-c2ccc3c(c2F)CCC(=O)N3C)CC1` , what pEC50 is on record? 11.70

----------
Target: Cytochrome P450 11B1, mitochondrial (Homo sapiens)
Sequence (P15538 whole entry): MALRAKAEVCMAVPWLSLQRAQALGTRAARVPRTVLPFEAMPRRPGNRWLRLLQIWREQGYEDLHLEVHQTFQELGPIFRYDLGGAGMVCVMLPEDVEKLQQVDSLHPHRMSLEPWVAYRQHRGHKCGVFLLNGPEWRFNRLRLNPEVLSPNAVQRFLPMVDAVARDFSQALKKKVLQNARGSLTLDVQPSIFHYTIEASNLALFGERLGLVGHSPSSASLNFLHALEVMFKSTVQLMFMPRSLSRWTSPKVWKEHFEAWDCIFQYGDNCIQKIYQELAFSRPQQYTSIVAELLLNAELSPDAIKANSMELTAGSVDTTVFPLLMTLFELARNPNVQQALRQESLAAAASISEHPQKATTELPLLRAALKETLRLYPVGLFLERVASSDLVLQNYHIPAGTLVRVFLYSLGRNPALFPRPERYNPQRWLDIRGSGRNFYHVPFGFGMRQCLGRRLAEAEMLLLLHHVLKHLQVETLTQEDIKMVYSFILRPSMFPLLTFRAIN
Experiment: Inhibition Assay
From the text: The expression plasmids contains the ORF for either human/cyno CYP11B1 or CYP11B2 under the control of a suitable promoter (CMV-promoter) and a suitable resistance marker (neomycin). […] An aliquot of the supernatant is then transferred and analyzed for the concentration of the expected product (Aldosterone for CYP11B2; Cortisol for CYP11B1). The concentrations of these steroids can be determined using HTRF assays from CisBio analyzing either Aldosterone or Cortisol.
metric: EC50 (nM)
# value in nM; strip the unit string

What value of EC50 has been recorded for this entry: CC(=O)N1CCC([C@H](C)c2c[nH]nc2-c2ccc3c(c2F)CCC(=O)N3C)CC1 (single isomer, unassigned) [US9796702, 37] 4.58
